# System: PPARg homodimer (NR concentration 180 nM)
# Protocol Summary: PBM binding z-score (relative to random genomic background probes); higher = stronger binding; sequences stand for … in GC…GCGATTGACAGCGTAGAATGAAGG

[
  {
    "Sequence Entry": "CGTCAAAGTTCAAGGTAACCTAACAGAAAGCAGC",
    "PBM binding z-score": 2.09
  },
  {
    "Sequence Entry": "CCTACTGGACCAAAAAGGTCATTGATGCCGATAA",
    "PBM binding z-score": 4.04
  },
  {
    "Sequence Entry": "CCTTCCGGGTCACTCCAGGTTATAGCATCGGAGT",
    "PBM binding z-score": 1.88
  },
  {
    "Sequence Entry": "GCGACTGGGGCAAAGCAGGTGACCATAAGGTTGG",
    "PBM binding z-score": 0.17
  },
  {
    "Sequence Entry": "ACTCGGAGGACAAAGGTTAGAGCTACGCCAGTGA",
    "PBM binding z-score": 1.1
  },
  {
    "Sequence Entry": "TCTAGTTGGTCACGGAGCTCACACACGACGGGTA",
    "PBM binding z-score": 0.57
  },
  {
    "Sequence Entry": "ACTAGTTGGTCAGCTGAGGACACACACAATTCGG",
    "PBM binding z-score": 0.0418
  },
  {
    "Sequence Entry": "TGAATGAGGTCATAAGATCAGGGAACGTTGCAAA",
    "PBM binding z-score": 1.71
  },
  {
    "Sequence Entry": "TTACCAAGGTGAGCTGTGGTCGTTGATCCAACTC",
    "PBM binding z-score": -0.41
  },
  {
    "Sequence Entry": "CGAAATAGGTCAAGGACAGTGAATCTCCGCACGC",
    "PBM binding z-score": 3.31
  },
  {
    "Sequence Entry": "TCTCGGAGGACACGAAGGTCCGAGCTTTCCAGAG",
    "PBM binding z-score": -0.731
  },
  {
    "Sequence Entry": "ACTAGCAGGCCAAGGGTCGCTCAAGATTAGTCCG",
    "PBM binding z-score": 0.333
  },
  {
    "Sequence Entry": "TCATATAGGTAAATAGGTGAAAGTCCGTAAGTTA",
    "PBM binding z-score": 1.18
  },
  {
    "Sequence Entry": "CCTACTGGGGCATAAGGTTACCATAAGCCAGCCC",
    "PBM binding z-score": 1.28
  },
  {
    "Sequence Entry": "ACTAGCAGGCCAAGTTTTGGTCACTCAAACAAAG",
    "PBM binding z-score": -0.321
  },
  {
    "Sequence Entry": "AGACTGAGGTTACCAAAGATCAGGGAAACGCTTG",
    "PBM binding z-score": 0.133
  },
  {
    "Sequence Entry": "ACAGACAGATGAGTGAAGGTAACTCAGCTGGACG",
    "PBM binding z-score": 0.692
  },
  {
    "Sequence Entry": "AGAATGAGGTTATTAAGTTCAGGGAATTGCGGTC",
    "PBM binding z-score": 1.36
  },
  {
    "Sequence Entry": "CAGCCTAGGTCAGCGCCAGTATAGGAGGAACGTT",
    "PBM binding z-score": 0.899
  },
  {
    "Sequence Entry": "ATCGAAAGGACGACGAGGTGAGTATACACCGTTT",
    "PBM binding z-score": -0.198
  },
  {
    "Sequence Entry": "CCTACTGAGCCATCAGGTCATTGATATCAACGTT",
    "PBM binding z-score": 2.1
  },
  {
    "Sequence Entry": "CAAACTATGTCAAGGTCAAAGTCGGTTTGTGCCA",
    "PBM binding z-score": 2.4
  },
  {
    "Sequence Entry": "CGTCCAAGGTCAGAGAGGTCCGTGAATGCCGAGT",
    "PBM binding z-score": 1.61
  },
  {
    "Sequence Entry": "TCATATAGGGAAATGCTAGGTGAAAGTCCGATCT",
    "PBM binding z-score": 0.712
  },
  {
    "Sequence Entry": "CAAACTAGGTCACAGAGGTCATAGTCCGTGCGTA",
    "PBM binding z-score": 6.77
  },
  {
    "Sequence Entry": "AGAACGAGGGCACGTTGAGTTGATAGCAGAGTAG",
    "PBM binding z-score": 0.701
  },
  {
    "Sequence Entry": "CCTACTGGGCCAAAAAGGTCATGGATGCCGATAA",
    "PBM binding z-score": 4.05
  },
  {
    "Sequence Entry": "TTACCAAGGTGCAAGGTCGTTGATGCACGCCTTG",
    "PBM binding z-score": 0.87
  },
  {
    "Sequence Entry": "GGAATGAGGGCATTCGAGTTGATAGCATGGCGAT",
    "PBM binding z-score": 0.811
  },
  {
    "Sequence Entry": "CTCGAAAGGTCGTTTGAGGTGAGTATACGGATAA",
    "PBM binding z-score": 1.54
  }
]
